src = ChEMBL document CHEMBL1137297

Exercise: state measured Ki for each of the molecules provided.
target: Delta-type opioid receptor (Homo sapiens, UniProt P41143); test: Displacement of [3H]diprenorphine from human cloned delta opioid receptor expressed in CHO cells
Sequence (P41143 whole entry): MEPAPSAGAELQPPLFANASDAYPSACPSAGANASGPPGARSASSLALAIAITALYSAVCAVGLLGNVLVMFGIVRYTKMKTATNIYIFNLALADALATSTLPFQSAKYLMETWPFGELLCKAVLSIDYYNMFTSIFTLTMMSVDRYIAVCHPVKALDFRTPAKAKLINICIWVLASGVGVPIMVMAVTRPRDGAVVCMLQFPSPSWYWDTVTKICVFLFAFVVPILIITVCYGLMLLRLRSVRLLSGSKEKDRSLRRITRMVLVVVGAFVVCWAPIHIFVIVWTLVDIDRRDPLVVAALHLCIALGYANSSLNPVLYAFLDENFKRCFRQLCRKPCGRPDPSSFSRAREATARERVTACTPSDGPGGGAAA
Numbers only, in nM.

C[C@H]1CN2C[C@@H](Cc3ccccc3)NC[C@H]2C[C@@]1(C)c1cccc(O)c1 = 410
C[C@H]1CN2C[C@@H](c3ccccc3)NC[C@H]2C[C@@]1(C)c1cccc(O)c1 = 660
C[C@H]1CN2C[C@H](C3CCCCC3)NC[C@H]2C[C@@]1(C)c1cccc(O)c1 = 68
Cc1ccc(CN2CCN3C[C@H](C)[C@](C)(c4cccc(O)c4)C[C@@H]3C2)cc1 = 350

Provide Ki values for the following items, in order.
1. C[C@H]1CN2CCN(Cc3ccc(O)cc3)C[C@H]2C[C@@]1(C)c1cccc(O)c1
2. C[C@H]1CN2CCN(S(=O)(=O)c3ccccc3)C[C@H]2C[C@@]1(C)c1cccc(O)c1
3. C[C@H]1CN2CCN(Cc3ccncc3)C[C@H]2C[C@@]1(C)c1cccc(O)c1
4. C[C@H]1CN2CCN(CC3CCCCC3)C[C@H]2C[C@@]1(C)c1cccc(O)c1
5. C[C@H]1CN2C[C@H](c3ccccc3)N(Cc3ccccc3)C[C@H]2C[C@@]1(C)c1cccc(C(=O)O)c1
6. C[C@H]1CN2CCN(CCCc3ccccc3)C[C@H]2C[C@@]1(C)c1cccc(O)c1
7. C[C@H]1CN2CCN(c3ccccc3)C[C@H]2C[C@@]1(C)c1cccc(O)c1
8. C[C@H]1CN2C[C@H](c3ccccc3)N(Cc3ccccc3)C[C@H]2C[C@@]1(C)c1cccc(O)c1

Given back:
1: 220; 2: 1700; 3: 1300; 4: 65; 5: 2500; 6: 960; 7: 960; 8: 340

Provide Ki values for the following items, in order.
1. C[C@H]1CN2CCN(Cc3ccco3)C[C@H]2C[C@@]1(C)c1cccc(O)c1
2. C[C@H]1CN2CCN(Cc3ccc(Cl)cc3)C[C@H]2C[C@@]1(C)c1cccc(O)c1
3. C[C@H]1CN2CCN(Cc3cccs3)C[C@H]2C[C@@]1(C)c1cccc(O)c1

Given back:
1500
420
260

----------
target: Mu-type opioid receptor (Homo sapiens, UniProt P35372); experiment: Inhibition of [3H]diprenorphine binding to human cloned mu opioid receptor expressed in CHO cells at 10 uM; format: cell-based
Sequence (P35372 whole entry): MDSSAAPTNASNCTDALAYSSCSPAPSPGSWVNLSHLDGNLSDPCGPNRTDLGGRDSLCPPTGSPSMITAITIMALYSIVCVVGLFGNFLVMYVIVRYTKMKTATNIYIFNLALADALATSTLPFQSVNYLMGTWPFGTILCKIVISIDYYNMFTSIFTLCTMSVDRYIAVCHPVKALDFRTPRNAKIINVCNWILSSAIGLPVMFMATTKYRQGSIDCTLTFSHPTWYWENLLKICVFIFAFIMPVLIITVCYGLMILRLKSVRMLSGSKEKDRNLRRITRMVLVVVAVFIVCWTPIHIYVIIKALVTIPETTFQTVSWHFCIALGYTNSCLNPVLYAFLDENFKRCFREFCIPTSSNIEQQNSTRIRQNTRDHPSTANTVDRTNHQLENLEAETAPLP
Exercise: state measured inhibition for each of the molecules provided.
I'd appreciate it if you included the unit after the number.

Reference set, count: 4
COC(=O)c1cccc([C@]2(C)C[C@@H]3CN(Cc4ccccc4)[C@@H](c4ccccc4)CN3C[C@@H]2C)c1 = 24%
C[C@H]1CN2CCN(S(C)(=O)=O)C[C@H]2C[C@@]1(C)c1cccc(O)c1 = 45%
C[C@H]1CN2CCN(C)C[C@H]2C[C@@]1(C)c1cccc(O)c1 = 69%
C[C@H]1CN2CCNC[C@H]2C[C@@]1(C)c1cccc(O)c1 = 49%

Asked: Return reported inhibition; argument: C[C@H]1CN2C[C@H](c3ccccc3)N(Cc3ccccc3)C[C@H]2C[C@@]1(C)c1cccc(C(=O)O)c1
Given back: 44%

----------
Exercise: state measured Ki for each of the compounds provided.
biological target: Delta-type opioid receptor (Homo sapiens); assay: Displacement of [3H]diprenorphine from human cloned delta opioid receptor expressed in CHO cells
Numbers only, in nM.

Reference set, count: 3
Cc1cccc(CN2CCN3C[C@H](C)[C@](C)(c4cccc(O)c4)C[C@@H]3C2)c1 = 510
C[C@H]1CN2CCN(C(=O)Nc3ccccc3)C[C@H]2C[C@@]1(C)c1cccc(O)c1 = 540
C[C@H]1CN2CCN(C(=O)CCc3ccccc3)C[C@H]2C[C@@]1(C)c1cccc(O)c1 = 140

Please look at the following compound next.
Asked: Which Ki is reported with Delta-type opioid receptor (Homo sapiens) for this entry: C[C@H]1CN2CCCN(Cc3ccccc3)C[C@H]2C[C@@]1(C)c1cccc(O)c1 ?
Given back: 2900

----------
biological target: Kappa-type opioid receptor (Homo sapiens, UniProt P41145); test: Antagonist activity assessed as inhibition of U50488-stimulated [35S]GTP-gamma-S binding to human kappa opioid receptor expressed in CHO cells
Sequence (P41145 whole entry): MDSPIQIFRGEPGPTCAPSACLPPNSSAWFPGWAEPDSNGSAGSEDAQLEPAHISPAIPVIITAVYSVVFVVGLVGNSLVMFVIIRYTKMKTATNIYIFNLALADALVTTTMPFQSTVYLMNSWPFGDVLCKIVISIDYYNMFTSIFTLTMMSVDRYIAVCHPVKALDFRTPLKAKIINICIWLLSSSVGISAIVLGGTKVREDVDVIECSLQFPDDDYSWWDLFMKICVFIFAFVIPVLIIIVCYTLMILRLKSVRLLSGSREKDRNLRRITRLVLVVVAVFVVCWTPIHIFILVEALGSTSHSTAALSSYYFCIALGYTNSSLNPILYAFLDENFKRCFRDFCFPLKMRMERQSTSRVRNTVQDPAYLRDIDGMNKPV
EXPERIMENTAL ENDPOINT: IC50 (nM)
Numbers only, in nM.

C[C@H]1CN2CCN(C(=O)c3ccccc3)C[C@H]2C[C@@]1(C)c1cccc(O)c1 = 50

Provide IC50 values for the following items, in order.
1. Cc1ccccc1CN1CCN2C[C@H](C)[C@](C)(c3cccc(O)c3)C[C@@H]2C1
2. C[C@H]1CN2C[C@H](c3ccccc3)NC[C@H]2C[C@@]1(C)c1cccc(O)c1
3. C[C@H]1CN2C[C@H](Cc3ccccc3)NC[C@H]2C[C@@]1(C)c1cccc(O)c1
4. C[C@H]1CN2C[C@H](c3ccccc3)NC[C@H]2C[C@@]1(C)c1cccc(C(N)=O)c1
5. C[C@H]1CN2C[C@H](c3ccccc3)N(C)C[C@H]2C[C@@]1(C)c1cccc(O)c1

Given back:
1. 15
2. 3.2
3. 16
4. 2.3
5. 2.4

----------
molecular target: Delta-type opioid receptor (Homo sapiens, UniProt P41143); experiment: Antagonist activity assessed as inhibition of BW373U86-stimulated [35S]GTP-gamma-S binding to human delta opioid receptor expressed in CHO cells
pIC50: −log10 of the molar value.
Please use Y whenever pIC50 is not below 7, and N whenever it is.

Consider the following illustrative entries.
C[C@H]1CN2CCN(Cc3cccs3)C[C@H]2C[C@@]1(C)c1cccc(O)c1 = N
C[C@H]1CN2C[C@H](Cc3ccccc3)NC[C@H]2C[C@@]1(C)c1cccc(O)c1 = Y
C[C@H]1CN2CCN(Cc3ccccc3O)C[C@H]2C[C@@]1(C)c1cccc(O)c1 = N

Asked: Please tell me: is the compound C[C@H]1CN2C[C@H](c3ccccc3)N(Cc3ccccc3)C[C@H]2C[C@@]1(C)c1cccc(O)c1 at or over 7 in terms of pIC50?
Given back: N

Asked: Please tell me: is the compound C[C@H]1CN2CCN(C(=O)c3ccccc3)C[C@H]2C[C@@]1(C)c1cccc(O)c1 at or over 7 in terms of pIC50?
Given back: Y

Asked: Please tell me: is the compound C[C@H]1CN2CCN(Cc3ccccc3Cl)C[C@H]2C[C@@]1(C)c1cccc(O)c1 at or over 7 in terms of pIC50?
Given back: N

----------
target: Delta-type opioid receptor (Homo sapiens, UniProt P41143); experiment: Inhibition of [3H]diprenorphine binding to human cloned delta opioid receptor expressed in CHO cells at 10 uM; assay type: cell-based
Please use yes (1) whenever inhibition is not below 30%, and no (0) whenever it is.

Consider the following illustrative entries.
C[C@H]1CN2CCN(C)C[C@H]2C[C@@]1(C)c1cccc(O)c1 = no (0)
C[C@H]1CN2CCN(Cc3ccnc4ccccc34)C[C@H]2C[C@@]1(C)c1cccc(O)c1 = no (0)

Asked: Please tell me: is the compound C[C@H]1CN2CCN(Cc3ccc(N(C)C)cc3)C[C@H]2C[C@@]1(C)c1cccc(O)c1 at or over 30% in terms of inhibition?
Given back: no (0)

Asked: Please tell me: is the compound C[C@H]1CN2CCN(S(C)(=O)=O)C[C@H]2C[C@@]1(C)c1cccc(O)c1 at or over 30% in terms of inhibition?
Given back: no (0)

Asked: Please tell me: is the compound C[C@H]1CN2CCN(Cc3cccc4ccccc34)C[C@H]2C[C@@]1(C)c1cccc(O)c1 at or over 30% in terms of inhibition?
Given back: yes (1)

Asked: Please tell me: is the compound C[C@H]1CN2CCN(Cc3ccc4ccccc4c3)C[C@H]2C[C@@]1(C)c1cccc(O)c1 at or over 30% in terms of inhibition?
Given back: yes (1)

Asked: Please tell me: is the compound C[C@H]1CN2CCN(Cc3cccc(Oc4ccccc4)c3)C[C@H]2C[C@@]1(C)c1cccc(O)c1 at or over 30% in terms of inhibition?
Given back: yes (1)

Asked: Please tell me: is the compound CC(C)[C@H]1CN2C[C@H](C)[C@](C)(c3cccc(O)c3)C[C@@H]2CN1 at or over 30% in terms of inhibition?
Given back: no (0)

Asked: Please tell me: is the compound CC(=O)N1CCN2C[C@H](C)[C@](C)(c3cccc(O)c3)C[C@@H]2C1 at or over 30% in terms of inhibition?
Given back: yes (1)

----------
// each record: one item and its log10 Ki for Mu-type opioid receptor (Homo sapiens)
// stored as log10 of Ki expressed in nM

CC(=O)N1CCN2C[C@H](C)[C@](C)(c3cccc(O)c3)C[C@@H]2C1 = 2.72

Provide log10 Ki values for the following items, in order.
1. C[C@H]1CN2CCN(c3ccccc3)C[C@H]2C[C@@]1(C)c1cccc(O)c1
2. CC(C)[C@H]1CN2C[C@H](C)[C@](C)(c3cccc(O)c3)C[C@@H]2CN1
3. C[C@H]1CN2CCN(Cc3cccc(Oc4ccccc4)c3)C[C@H]2C[C@@]1(C)c1cccc(O)c1

Given back:
2.34
2.58
1.32
